# Assay: qHTS Assay for Lipid Storage Modulators in Drosophila S3 Cells
# Setup conditions: BODIPY lipid droplet fluorescence, 18-24 h, cells fed with added oleic acid; series mostly up to 46.1 µM
Among all 320,000 compounds or so, about 2,100 (0.66%) were called active. Another 53% or so got no clear call; they are omitted. The call rests on the fitted dose curve; in most records, active means well fitted inhibition curve with a large enough effect in the signal ratio, with a control signal flat (not every such curve was filed as active); inconclusive means small, poorly fitted or top-dose-only effect, or effect the other way, or a change in a side signal; inactive means flat fitted curve, though single readings scatter; the % refers to the signal ratio. The sample holds actives, similar compounds and a random draw of the others, so the mix is not that of the screen.
Choose one outcome from this list and give only that: active, inactive

Example entries begin here.
- Compound: "O=C(CN1CCN(S(=O)(=O)c2ccccc2)CC1)NC1CC1"
  Assigned class: "inactive"
- Compound: "Cc1[nH]n(-c2ccccc2)c(=O)c1N=Nc1ccccc1C(=O)N1CCOCC1"
  Assigned class: "inactive"
- Compound: "Cc1[nH]n(-c2ccc(Cl)cc2)c(=O)c1N=Nc1cccnc1"
  Assigned class: "inactive"

Request: What did this assay record as the result for Cc1ccccc1NC(=O)CCC(=O)OCCCC(F)(F)C(F)(F)F ?
Response: inactive

Request: What did this assay record as the result for CCC(C)C(NC(=O)OCc1ccccc1)C(=O)NC(Cc1ccc(O)cc1)C(=O)OC (stereo not given) ?
Response: inactive

Request: What did this assay record as the result for Cc1[nH]n(-c2ccccc2)c(=O)c1N=Nc1ccc(C(N)=O)cc1 ?
Response: inactive

Request: What did this assay record as the result for CCCNC(=O)Cn1cnc2sc(C(=O)N3CCCC(C(=O)OCC)C3)c(C)c2c1=O (stereo not given) ?
Response: inactive

Request: What did this assay record as the result for CC(C)(C)OC(=O)N/N=C/c1cccc([N+](=O)[O-])c1 ?
Response: inactive

Request: What did this assay record as the result for COC(=O)C1(CCSC)NC(c2ccc(O)cc2)C2C(=O)N(c3ccc4c(c3)OCCO4)C(=O)C21 (stereo not given) ?
Response: inactive

---

# Assay: qHTS Assay for Lipid Storage Modulators in Drosophila S3 Cells
# Setup conditions: BODIPY lipid droplet fluorescence, 18-24 h, cells fed with added oleic acid; series mostly up to 46.1 µM
Out of some 320,000 compounds screened, about 2,100 (0.66%) were called active. Not shown: some 53% with an inconclusive outcome. The call rests on the fitted dose curve; in most records, active means well fitted inhibition curve with a large enough effect in the signal ratio, with a control signal flat (not every such curve was filed as active); inconclusive means small, poorly fitted or top-dose-only effect, or effect the other way, or a change in a side signal; inactive means flat fitted curve, though single readings scatter; the % refers to the signal ratio. Only a selection was taken, and actives are over-represented in it overall.
Choose one outcome from this list and give only that: active, inactive

- Compound: "Cc1ccc(S(=O)(=O)N2CCOCC2)cc1NC(=O)COC(=O)CNC(=O)c1ccccc1"
  Assigned class: "inactive"
- Compound: "Cc1ccc(-c2cc(-c3ccccc3)c(C#N)c(Br)n2)cc1"
  Assigned class: "inactive"
- Compound: "O=C(Cc1ccc(F)cc1)Nc1c(C(=O)N2CCN(c3ncccn3)CC2)oc2ccccc12"
  Assigned class: "inactive"
- Compound: "COCCN(C(=O)CSc1nc2ccc(C)cc2[nH]1)c1c(N)n(Cc2ccccc2)c(=O)[nH]c1=O"
  Assigned class: "inactive"
- Compound: "CC1(C(=O)NCc2ccc(Cl)c(Cl)c2)Oc2cccnc2NC1=O (configuration not stated)"
  Assigned class: "inactive"

Request: What did this assay record as the result for O=C(CSc1ncnc2sccc12)Nc1ccc(S(=O)(=O)N2CCOCC2)cc1 ?
Response: active

Request: What did this assay record as the result for Cc1cc(C)c(OCC(=O)Nc2ccc(S(=O)(=O)N3CCCC3)cc2)c(C)c1 ?
Response: inactive

Request: What did this assay record as the result for COc1cccc(CNC(=O)C2(C)Oc3ccccc3NC2=O)c1 (configuration not stated) ?
Response: active

Request: What did this assay record as the result for CC1=N/C(=C/c2cccnc2)C(=O)O1 ?
Response: inactive

Request: What did this assay record as the result for CC(C)N1C(=O)S/C(=C/c2cccnc2)C1=O ?
Response: inactive

Request: What did this assay record as the result for Nc1nnc(SCC(=O)Nc2ccc(S(=O)(=O)N3CCOCC3)cc2)s1 ?
Response: inactive

---

# Assay: qHTS Assay for Lipid Storage Modulators in Drosophila S3 Cells
# Setup conditions: BODIPY lipid droplet fluorescence, 18-24 h, cells fed with added oleic acid; series mostly up to 46.1 µM
About 2,100 (0.66%) of roughly 320,000 compounds were called active. Another 53% or so got no clear call; they are omitted. Calls come from the whole dose curve; as a rule, active = well fitted inhibition curve with a large enough effect in the signal ratio, with a control signal flat (not every such curve was filed as active); inconclusive = small, poorly fitted or top-dose-only effect, or effect the other way, or a change in a side signal; inactive = flat fitted curve, though single readings scatter; the % refers to the signal ratio. The sample as a whole holds a higher share of actives than the screen did.
Choose one outcome from this list and give only that: active, inactive

- Molecule: "Fc1ccc(-n2c(CN3CCCCC3)n[nH]c2=S)cc1"
  Assigned class: "active"
- Molecule: "CCOC(=O)Cc1csc(SCC(=O)NC(C)C23CC4CC(CC(C4)C2)C3)n1 (configuration not stated)"
  Assigned class: "active"

Request: What did this assay record as the result for COc1ccc(NC(=O)/C(C#N)=C/c2cccnc2)c(OC)c1 ?
Response: inactive

Request: What did this assay record as the result for CCOC(=O)Cc1csc(SCC(=O)Nc2cccc(Cl)c2)n1 ?
Response: inactive

Request: What did this assay record as the result for Cc1cc([N+](=O)[O-])nn1CCC(=O)Nc1nccs1 ?
Response: inactive

Request: What did this assay record as the result for COCCC(=O)N1CCC(Oc2ccc(C(=O)NCCc3cnn(C)c3)cc2)CC1 ?
Response: inactive

Request: What did this assay record as the result for COc1ccccc1NC(=O)/C(C#N)=C/c1cccnc1 ?
Response: inactive

Request: What did this assay record as the result for Cc1ccc2[nH]c3c(c2c1)CCN1C(=O)OC(C)(C)C31C (configuration not stated) ?
Response: inactive

Request: What did this assay record as the result for O=C(NC1CC1)c1cc(-c2ccccn2)nc2ccccc12 ?
Response: inactive

Request: What did this assay record as the result for Cc1ccc2nc(-c3ccccn3)cc(C(=O)NC3CCN(C)CC3)c2c1 ?
Response: active

Request: What did this assay record as the result for CCOC(=O)N1CCN(C(=O)CSc2nc(=O)n3cc(C)ccc3n2)CC1 ?
Response: inactive

Request: What did this assay record as the result for S=c1[nH]nc(CN2CCCCC2)n1Cc1ccccc1 ?
Response: inactive

---

# Assay: qHTS Assay for Lipid Storage Modulators in Drosophila S3 Cells;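 on cell number change: cells counted by Cell Tracker Red CMTPX staining in the red channel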
# Setup conditions: BODIPY lipid droplet fluorescence, 18-24 h, cells fed with added oleic acid; measured here: cell count max response
The campaign covered roughly 320,000 compounds. About 2,100 (0.66%) were called active. Not shown: some 53% with an inconclusive outcome. The sample holds actives, similar compounds and a random draw of the others, so the mix is not that of the screen.
Measured property: cell number change (%)
Give bare numbers, in %.

Known cell number change results, listed for orientation:
- Given smiles: "CC(=O)Nc1ccc(S(=O)(=O)Nc2cccc(-c3ccc4nncn4n3)c2)cc1"
  Uom: "%"
  cell number change: -19.1
- Given smiles: "CC(C)c1nc2ccc(C(=O)O)cc2[nH]1"
  Uom: "%"
  cell number change: -0.0603
- Given smiles: "CCOC(=O)c1cc2c(=O)n3cccc(C)c3nc2n(CCCOC)c1=NC(=O)c1cccnc1"
  Uom: "%"
  cell number change: -8.27
- Given smiles: "Cc1ccc(S(=O)(=O)N2CCOCC2)cc1NC(=O)COC(=O)CCC(=O)c1ccc(F)cc1"
  Uom: "%"
  cell number change: 14.2

Request: Fill in reported cell number change for this entry: COc1ccc(S(=O)(=O)c2c(O)c3ccc(C(=O)Nc4ccc(F)cc4)cc3[nH]c2=O)cc1
Response: -7.08

---

# Assay: qHTS Assay for Lipid Storage Modulators in Drosophila S3 Cells
# Setup conditions: BODIPY lipid droplet fluorescence, 18-24 h, cells fed with added oleic acid; series mostly up to 46.1 µM
Among all 320,000 compounds or so, about 2,100 (0.66%) were called active. Not shown: some 53% with an inconclusive outcome. Calls follow the shape of the dose curve; as a rule, active = well fitted inhibition curve with a large enough effect in the signal ratio, with a control signal flat (not every such curve was filed as active); inconclusive = small, poorly fitted or top-dose-only effect, or effect the other way, or a change in a side signal; inactive = flat fitted curve, though single readings scatter; the % refers to the signal ratio. Shown is part of a subset that was picked to be rich in actives.
Choose one outcome from this list and give only that: 1.0 (active), 0.0 (inactive)

- Given smiles: "C1=C(CCNc2ncnc3nc[nH]c23)CCCC1"
  Assigned class: 1.0
- Given smiles: "CCOc1ccc(CCNC(=O)c2nnn(CC(=O)Nc3c(C)cc(C)cc3C)c2N)cc1OCC"
  Assigned class: 0.0

Request: What did this assay record as the result for CC(C)Oc1ccc(C(=O)Nc2c3c(nn2C(C)(C)C)CS(=O)(=O)C3)cc1 ?
Response: 0.0

Request: What did this assay record as the result for CCN(CC)CCNC(=O)c1ccccc1N ?
Response: 1.0

---

# Assay: qHTS Assay for Lipid Storage Modulators in Drosophila S3 Cells
# Setup conditions: BODIPY lipid droplet fluorescence, 18-24 h, cells fed with added oleic acid; series mostly up to 46.1 µM
Screen size: about 320,000 compounds; about 2,100 (0.66%) were called active. Inconclusive results (about 53%) are left out. Calls come from the whole dose curve; as a rule, active = well fitted inhibition curve with a large enough effect in the signal ratio, with a control signal flat (not every such curve was filed as active); inconclusive = small, poorly fitted or top-dose-only effect, or effect the other way, or a change in a side signal; inactive = flat fitted curve, though single readings scatter; the % refers to the signal ratio. The sample as a whole holds a higher share of actives than the screen did.
Choose one outcome from this list and give only that: active, inactive

Example entries begin here.
- Molecule: "CC1(C)CC(C(CC(=O)Nc2nccs2)c2ccccc2)CCO1 (stereo not given)"
  Assigned class: "inactive"
- Molecule: "COc1ccc(/C=c2/sc3n(c2=O)C(c2ccccc2OC)C2=C(N=3)c3ccccc3CC2)cc1O (stereo not given)"
  Assigned class: "inactive"
- Molecule: "COc1ccc(NC(=O)CCNS(=O)(=O)c2cc(Br)cnc2N)c(OC)c1"
  Assigned class: "inactive"
- Molecule: "CCOc1ccc(OCC)c(NC(=O)CCNS(=O)(=O)c2cc(Br)cnc2N)c1"
  Assigned class: "active"
- Molecule: "COCc1c(C(=O)N/N=C/c2cccc3ccccc23)nnn1-c1nonc1N"
  Assigned class: "inactive"

Request: What did this assay record as the result for CN(Cc1cccc(F)c1)C(=O)c1cc(S(=O)(=O)N2CCOCC2)ccc1N1CCCC1 ?
Response: inactive

Request: What did this assay record as the result for Cc1ccc(/C=N/NC(=O)c2nnn(-c3nonc3N)c2C)o1 ?
Response: inactive

Request: What did this assay record as the result for CCOc1ccc(CNC2CCCCCCC2)cc1OC ?
Response: inactive

All values here come from PubChem BioAssay AID2685.
